- assay_details: Inhibitory activity against rice Alpha-galactosidase
readout_label: IC50
State the value, then name its unit.

Query: Given the compound OCC1=NO[C@H]2[C@H](O)C(O)O[C@@H]12 (stereo partly specified) , what is its reported IC50?
Result: 805 µM
